System: Staphylococcus aureus
Test: Antibacterial activity against methicillin-resistant Staphylococcus aureus 1 measured after overnight incubation by broth double-dilution method
Type: functional

{"Record smiles": "O=c1c2ccccc2sn1CCc1ccccc1", "Target of assay": "Staphylococcus aureus", "MIC (µg/mL)": 1}
{"Record smiles": "C#Cc1ccc(-n2sc3ccccc3c2=O)cc1", "Target of assay": "Staphylococcus aureus", "MIC (µg/mL)": 3.9}
{"Record smiles": "O=c1c2ccccc2sn1-c1cccc2ccccc12", "Target of assay": "Staphylococcus aureus", "MIC (µg/mL)": 1}
{"Record smiles": "CC(C)Cn1sc2ccccc2c1=O", "Target of assay": "Staphylococcus aureus", "MIC (µg/mL)": 7.8}
{"Record smiles": "CC(C)CCn1sc2ccccc2c1=O", "Target of assay": "Staphylococcus aureus", "MIC (µg/mL)": 3.9}
{"Record smiles": "O=c1c2ccccc2sn1CCCc1ccccc1", "Target of assay": "Staphylococcus aureus", "MIC (µg/mL)": 0.5}
{"Record smiles": "O=c1c2ccccc2sn1-c1ccc(Br)cc1", "Target of assay": "Staphylococcus aureus", "MIC (µg/mL)": 3.9}
